- tested.system: T1, Human C5 (human, UniProt P01031 19-1676)
- T1 construct: The natural protein has a beta and an alpha chain; also called complement factor 5; complement component 5
- procedure.details: SPR, mAb captured by anti-hFc, 25C
measure.name: 100 nM Human C5 Bound (RU)

For orientation, consider the following solved cases.
[ask] Please look up its 100 nM Human C5 Bound (RU): H4H11686N (antibody, human IgG4, V domains shown, also called H2M11686N) VH: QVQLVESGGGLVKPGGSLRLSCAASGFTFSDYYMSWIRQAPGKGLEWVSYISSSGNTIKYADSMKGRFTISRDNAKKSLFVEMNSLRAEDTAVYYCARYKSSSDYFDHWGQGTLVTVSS VL: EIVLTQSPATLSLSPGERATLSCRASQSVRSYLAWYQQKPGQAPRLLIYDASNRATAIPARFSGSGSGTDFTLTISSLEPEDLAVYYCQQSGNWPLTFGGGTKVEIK
[reply] 341 RU

[ask] Please look up its 100 nM Human C5 Bound (RU): H4H12166P4 (antibody, human IgG4, V domains shown, human IgG4 Fc with S108P hinge mutation) VH: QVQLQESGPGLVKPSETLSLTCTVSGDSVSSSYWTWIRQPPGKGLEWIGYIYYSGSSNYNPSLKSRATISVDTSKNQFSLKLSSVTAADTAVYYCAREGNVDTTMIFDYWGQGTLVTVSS VL: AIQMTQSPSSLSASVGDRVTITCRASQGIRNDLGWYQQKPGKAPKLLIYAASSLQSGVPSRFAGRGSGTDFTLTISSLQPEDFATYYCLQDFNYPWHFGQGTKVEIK
[reply] 92 RU

[ask] Please look up its 100 nM Human C5 Bound (RU): H4H12166P6 (antibody, human IgG4, V domains shown, human IgG4 Fc with S108P hinge mutation) VH: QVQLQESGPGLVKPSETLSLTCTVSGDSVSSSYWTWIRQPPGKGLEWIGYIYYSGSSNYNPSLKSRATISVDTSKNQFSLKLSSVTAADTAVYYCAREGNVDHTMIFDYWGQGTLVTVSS VL: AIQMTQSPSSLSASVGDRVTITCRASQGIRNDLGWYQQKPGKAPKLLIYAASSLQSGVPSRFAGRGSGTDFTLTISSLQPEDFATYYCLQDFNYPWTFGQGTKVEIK
[reply] 131 RU

Further cases:
[ask] Please look up its 100 nM Human C5 Bound (RU): H4H12163P (antibody, human IgG4, V domains shown) VH: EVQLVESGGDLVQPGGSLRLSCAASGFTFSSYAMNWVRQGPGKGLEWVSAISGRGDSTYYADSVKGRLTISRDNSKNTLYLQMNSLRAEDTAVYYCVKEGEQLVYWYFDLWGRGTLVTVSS VL: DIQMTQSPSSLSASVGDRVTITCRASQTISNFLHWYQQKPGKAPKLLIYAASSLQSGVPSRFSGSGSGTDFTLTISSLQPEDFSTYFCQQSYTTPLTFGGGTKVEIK
[reply] 108 RU
